Would you mind telling me the reported IC50 of each entry?
# TESTED TARGET: T1, HLA-DRB1*0101 (human)
# T1 construct: Purified HLA molecule; also called DR1
# ASSAY PROTOCOL: inhibition of 125I probe peptide binding to purified HLA-DR, gel filtration
Value and unit, in that order.

Prompt line: Answer with the recorded IC50 of DEAYVMAGVGSPYVS (Synthetic peptide) [Her2/neu.769] only.
Response line: 100 nM

Prompt line: Answer with the recorded IC50 of KVPIKWMALESILRR (Synthetic peptide) [Her2/neu.883] only.
Response line: 2.3 nM
